So I've got a bunch of compounds here, and I need their cell viability values.
- Tested on: NOMO1
- protocol_description: cell viability relative to DMSO control; higher = less cytotoxic
- condition_details: HPLM + 10% dialyzed FBS; 48 h; 0.0211 µM
Give bare numbers, in %.

Your task in this section: give cell viability for each listed record.
1. CC(C)OC1=CC=C2C(=C1)O\C=C(/C2=O)C3=CC=CC=C3
2. CC(C)[C@H](N)C(=O)OCCOC[N]1C=NC2=C1\N=C(N)/NC2=O
3. Nc1ncnc2c1c(-c1cccc(OCc3ccccc3)c1)cn2C1CC(CN2CCCC2)C1 (stereo not given)
4. OCc1ccc(-c2ccc(-c3ccc(CO)s3)o2)s1
5. COc1cccc2c1[C@]13CCN(CC4CC4)[C@H](C2)[C@]1(OC)CCC(=O)C3

Response:
1: 143; 2: 122; 3: 124; 4: 147; 5: 121

====

Give AUC of viability dose-response curve for every item shown.
- Tested on: SEM cells
- protocol_description: AUC of viability dose-response curve (% viability x log10 dose units); higher = less sensitive
- condition_details: RPMI 5 mM glucose + 10% FBS; 48 h
Numbers only.

Worked examples follow.
>  <compound>
CNC(=O)CN1CCC(Oc2cc3c(Nc4cccc(Cl)c4F)ncnc3cc2OC)CC1

>  <experimental_value>
469

$$$$
>  <compound>
COC1=CC=C(C=C1O)C/2=C/C(=O)C3=C(O2)C=C(O[C@@H]4O[C@H](CO[C@@H]5O[C@@H](C)[C@H](O)[C@@H](O)[C@H]5O)[C@@H](O)[C@H](O)[C@H]4O)C=C3O

>  <experimental_value>
453

$$$$
>  <compound>
CN(C)C(=O)C(CCN1CCC(O)(c2ccc(Cl)cc2)CC1)(c1ccccc1)c1ccccc1

>  <experimental_value>
436

$$$$
>  <compound>
O=c1oc2c(O)c(O)cc3c(=O)oc4c(O)c(O)cc1c4c23

>  <experimental_value>
467

$$$$
>  <compound>
COc1cc(/C=C/C(=O)O)ccc1O

>  <experimental_value>
412

$$$$

Please report AUC of viability dose-response curve for every entry that follows.
1. Nc1ncnc2c1nc(Cl)n2[C@@H]1O[C@H](CO)[C@@H](O)[C@H]1O
2. COc1ccc2cc1Oc1ccc(cc1)C[C@H]1c3cc(c(OC)cc3CCN1C)Oc1c(OC)c(OC)cc3c1[C@H](C2)N(C)CC3
3. CC(C)Oc1ccc(C(=O)N[C@H](CNC(=O)CN(C)C)Cc2ccc(-c3cn4cccc([C@H](C)O)c4n3)cc2)cc1Cl
4. CCN1CCCC1CNC(=O)c1cc([S+](N)(=O)[O-])ccc1OC (configuration not stated)
5. COc1ccccc1N1CCN(CCN(C(=O)C2CCCCC2)c2ccccn2)CC1

Response:
419
432
346
460
467

For the 4 compounds below, give their AUC of viability dose-response curve values.
1. Cn1cc(-c2ccc(F)c(C(F)(F)F)c2)nc1C1CCN(c2ncnc3[nH]ncc23)CC1
2. N#C[C@H](O[C@@H]1O[C@H](CO[C@@H]2O[C@H](CO)[C@@H](O)[C@H](O)[C@H]2O)[C@@H](O)[C@H](O)[C@H]1O)c1ccccc1
3. CON(C)C(=O)N1/N=C(S[C@@]1(CCCN)C2=CC=CC=C2)/C3=CC(=CC=C3F)F
4. CNC(=O)[C@H](CC/1=C/N=C\2/C=C\C\C=C12)NC(=O)[C@H](CC(C)C)CC(=O)NO

Response:
[461, 452, 171, 462]

Give me AUC of viability dose-response curve for each of these compounds, listed below.
1. NC/1=N/C(=O)N(/C=N1)[C@@H]2O[C@H](CO)[C@@H](O)[C@H]2O
2. COc1cccc2c1[C@]13CCN(CC4CC4)[C@H](C2)[C@]1(OC)CCC(=O)C3
3. OC[C@H]1O[C@@H](Oc2cc(O)cc(/C=C/c3ccc(O)cc3)c2)[C@H](O)[C@@H](O)[C@@H]1O
4. CCOc1cc(CC(=O)N[C@@H](CC(C)C)c2ccccc2N2CCCCC2)ccc1C(=O)O

Response:
[399, 416, 433, 432]

Record AUC of viability dose-response curve for all entries; do not skip any.
1. O=C(O)CCCc1c[nH]c2ccccc12
2. O=C(/C=C/c1ccc(O)cc1)c1ccc(O)cc1O
3. Nc1ncnc2c1c(-c1cccc(OCc3ccccc3)c1)cn2C1CC(CN2CCCC2)C1 (configuration not stated)
4. CO/N=C(\C(=O)N[C@@H]1C(=O)N2C(C(=O)OCOC(=O)C(C)(C)C)=C(/C=C\c3scnc3C)CS[C@H]12)c1csc(N)n1
5. CCNC(=O)Nc1ccc2ncc(Nc3ccc(C)cc3)nc2n1
6. C[C@@H](O)[C@@H]1NC(=O)[C@H](CCCCN)NC(=O)[C@@H](Cc2c[nH]c3ccccc23)NC(=O)[C@H](Cc2ccccc2)NC(=O)[C@@H](NC(=O)[C@H](N)Cc2ccccc2)CSSC[C@@H](C(=O)N[C@H](CO)[C@@H](C)O)NC1=O
7. Cn1cc(C[C@@H](N)C(=O)O)c2ccccc21

Response:
1. 441
2. 433
3. 414
4. 412
5. 418
6. 404
7. 406

Batch: AUC of viability dose-response curve for all items listed.
1. C[S+](=O)([O-])CCNCc1ccc(-c2ccc3ncnc(Nc4ccc(OCc5cccc(F)c5)c(Cl)c4)c3c2)o1
2. C[C@]12CCC\3=C\4CCC(=O)\C=C4CC[C@H]3[C@@H]1CC[C@@]2(O)CC#N

Response:
1. 418
2. 445
